# System: HeLa cancer cells
# experiment_notes: MTT cytotoxicity assay in HeLa cancer cells
# Format: cell-based
# measurement_parameters: HeLa cancer cells, 72 hours, MTT, mean of three independent experiments; read-out: IC50 (cytotoxicity)
Provide the recorded IC50 for the entries that follow.
Numeric answer only, unit µM assumed.

Incoming: For COc1cc2c(cc1OC)C(Cc1ccc(Oc3cc(CC4c5cc(OC)c(OC)cc5CCN4C)ccc3OC(=O)c3ccccc3)cc1)N(C)CC2 (stereo not shown) , write its IC50.
Outgoing: 6.44

Incoming: Determine from records and report IC50 for COc1cc2c(cc1OC)C(Cc1ccc(Oc3cc(CC4c5cc(OC)c(OC)cc5CCN4C)ccc3OS(=O)(=O)c3ccc(C)cc3)cc1)N(C)CC2 (stereo not shown)
Outgoing: 6.1

Incoming: Give a short answer stating reported IC50 for COc1cc2c(cc1OC)C(Cc1ccc(Oc3cc(CC4c5cc(OC)c(OC)cc5CCN4C)ccc3OC(=O)N(C)c3ccccc3)cc1)N(C)CC2 (stereo not shown) .
Outgoing: 6.72

Incoming: Retrieve IC50 measured for COc1cc2c(cc1OC)C(Cc1ccc(Oc3cc(CC4c5cc(OC)c(OC)cc5CCN4C)ccc3OC(=O)N(c3ccccc3)c3ccccc3)cc1)N(C)CC2 (stereo not shown) and print it.
Outgoing: 5.44
